Tested on: dA60.dT60 duplex
ASSAY_NOTES: UV thermal denaturation of AT rich DNA duplex
Type: binding
TEST_CONTEXT: ligand 10 μM, DNA 1 μM/duplex, 10 mM sodium cacodylate, 0.1 mM EDTA, 100 mM NaCl, pH 7.0; duplex alone 62.5° C.
RESULT_TYPE: ΔTm (thermal stabilization) (°C)

COMPOUND_STRUCTURE	RESULT_TYPE	MEASUREMENT
C#CCOCCCCOc1ccc(-c2nc3ccc(-c4nc5ccc(N6CCN(C)CC6)cc5[nH]4)cc3[nH]2)cc1	ΔTm (thermal stabilization)	23.4
C#CCCCCCCCCCOc1ccc(-c2nc3ccc(-c4nc5ccc(N6CCN(C)CC6)cc5[nH]4)cc3[nH]2)cc1	ΔTm (thermal stabilization)	8
C#CCCCCOc1ccc(-c2nc3ccc(-c4nc5ccc(N6CCN(C)CC6)cc5[nH]4)cc3[nH]2)cc1	ΔTm (thermal stabilization)	20.9

###

TARGET_ENTITY: human DNA topoisomerase I (Homo sapiens, UniProt P11387)
Sequence (P11387 1-765): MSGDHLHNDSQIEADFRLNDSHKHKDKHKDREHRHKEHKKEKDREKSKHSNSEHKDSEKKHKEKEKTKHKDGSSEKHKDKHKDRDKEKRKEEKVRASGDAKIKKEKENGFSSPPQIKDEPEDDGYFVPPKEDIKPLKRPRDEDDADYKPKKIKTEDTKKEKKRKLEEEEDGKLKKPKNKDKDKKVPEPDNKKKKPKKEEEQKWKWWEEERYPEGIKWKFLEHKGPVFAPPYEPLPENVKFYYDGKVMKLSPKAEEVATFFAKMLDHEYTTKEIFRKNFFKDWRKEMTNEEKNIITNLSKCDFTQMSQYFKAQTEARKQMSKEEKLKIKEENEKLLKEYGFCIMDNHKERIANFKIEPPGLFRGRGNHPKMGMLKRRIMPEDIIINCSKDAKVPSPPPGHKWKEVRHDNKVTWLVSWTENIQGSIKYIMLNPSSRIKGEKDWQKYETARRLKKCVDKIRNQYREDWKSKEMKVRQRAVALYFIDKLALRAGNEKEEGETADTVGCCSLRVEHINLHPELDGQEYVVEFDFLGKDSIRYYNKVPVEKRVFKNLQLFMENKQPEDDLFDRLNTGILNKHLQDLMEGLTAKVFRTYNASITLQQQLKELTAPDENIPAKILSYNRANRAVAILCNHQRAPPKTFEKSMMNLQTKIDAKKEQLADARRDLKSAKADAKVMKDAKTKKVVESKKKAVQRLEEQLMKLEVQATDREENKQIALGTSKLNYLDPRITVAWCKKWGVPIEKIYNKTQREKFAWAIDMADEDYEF
RESULT_TYPE: IC50

COMPOUND	MEASUREMENT
CN1CCN(c2ccc3[nH]c(-c4ccc5[nH]c(-c6ccc(O)cc6)nc5c4)nc3c2)CC1 [Hoechst 33258, reference compound]	22.9 µM
C#CCOCCCCOc1ccc(-c2nc3ccc(-c4nc5ccc(N6CCN(C)CC6)cc5[nH]4)cc3[nH]2)cc1	> 50 µM
C#CCCCCCCCCCOc1ccc(-c2nc3ccc(-c4nc5ccc(N6CCN(C)CC6)cc5[nH]4)cc3[nH]2)cc1	> 50 µM
CCOc1ccc(-c2nc3ccc(-c4nc5ccc(N6CCN(C)CC6)cc5[nH]4)cc3[nH]2)cc1 [Hoechst 33342, reference compound]	> 50 µM
C#CCCCCOc1ccc(-c2nc3ccc(-c4nc5ccc(N6CCN(C)CC6)cc5[nH]4)cc3[nH]2)cc1	> 50 µM
C#CCOc1ccc(-c2nc3ccc(-c4nc5ccc(N6CCN(C)CC6)cc5[nH]4)cc3[nH]2)cc1	25.4 µM

These measurements were taken from patent US9920014B2.
